The values you see were collected from patent EP0498290B1.

- assay.summary: in vitro
- Format: cell-based
- assay.context: human, c8166 cells
assay.readout: CC50 at 120 h (µg/mL)
Give the value, in units of µg/mL, as a plain number.

Could you please provide reported CC50 at 120 h for Cc1ccnc2c1N=C(C#N)c1cccnc1N2C1CC1 ? Thanks!
28
